Data origin, for the record: ChEMBL document CHEMBL1201862

Below, each of the compounds is paired with its reported GI50 value.
# Tested on: M19-MEL
# ASSAY TEXT: NCI tumour cell line growth inhibition, 48 h
Active and inactive are the calls of the source. Rule as the data show it: active = GI50 up to about 1.1 µM and inactive = higher.

CC(C)(C)S(=O)OC12CC3CC(CC(C3)C1)C2 (stereo unspecified) | > 100 µM (inactive)
CN1CCN(C)C1c1cccc(C2N(C)CCN2C)c1 | > 100 µM (inactive)

Indicate its recorded GI50; the compound in question is C#CC1(O)CCC2[C@@H]3CCc4cc(Oc5nc(F)nc(-c6c7ccccc7cn6C)n5)ccc4C3CC[C@@]21C (stereo partly specified)
> 100 µM (inactive)

Let me know recorded GI50 for CCOCN/C(N)=N\C#N , thanks.
> 100 µM (inactive)

###

# Tested on: SNB-19
# ASSAY TEXT: NCI tumour cell line growth inhibition, 48 h
Active and inactive are the calls of the source. Cut-off read from the data, not from the text of the source: active = GI50 up to about 1.1 µM and inactive = higher.
Parameter call: string, one of true = active, false = inactive

O=[N+]([O-])c1ccc(N/N=C/CC(O)(C(F)(F)F)C(F)(F)F)c([N+](=O)[O-])c1 | false

Test call for this compound, please: CCOP(=O)(OCC)C(N)c1ccc(Cl)cc1 (stereo not drawn)
false

// outcome(item) with item = Cc1nc2ccccc2c(=O)n1NC(=O)c1ccccn1
false

How was Cc1ccc(/N=N/c2c(O)ccc3ccccc23)cc1 classified in this test?
false

###

# Tested on: HOP-92
# ASSAY TEXT: NCI tumour cell line growth inhibition, 48 h
Active and inactive are the calls of the source. No stated cut-off is given here; in the data, active = GI50 up to about 1.1 µM and inactive = higher.
TEST READOUT: GI50

Solved entries:
c1ccc2c(c1)nnn1c3cnccc3nc21 | 24.6 µM (inactive)
CC(=O)Nc1c(C)ccc2c1C(=O)c1ccccc1C2=O | > 100 µM (inactive)
c1cnc2c(c1)Nc1cnncc1S2 | 86.3 µM (inactive)
Cc1occc1/C(S)=N\c1ccc(Cl)c(C(=O)OCC(F)(F)F)c1 | 17.4 µM (inactive)
C/C(=N\Oc1cc(Cl)ncn1)c1ccccn1 | 20.5 µM (inactive)

Give me measured GI50, please, for this molecule: COc1cccc(NC(=O)/C(CC(=O)CC(c2ccccc2)c2c(O)c3ccccc3oc2=O)=N\NC(C)(C)C)c1OC (stereo unspecified)
17.6 µM (inactive)

Please give the documented GI50 of CC1=NN(c2nc(N)nc(C(C)Sc3cc(Cl)c(C)cc3S(N)(=O)=O)n2)C(C)(C)C1 (stereo unspecified)
> 10 µM (inactive)

Let me know recorded GI50 for C/C(=N/NC(N)=S)c1ccc2ccccc2c1 , thanks.
> 100 µM (inactive)

Give the value of GI50 reported for the following: CCOC(=O)NC(=O)c1cn(CCCOC(=O)CCCCCCCCC(=O)OCCCn2cc(C(=O)NC(=O)OCC)c(=O)n(C)c2=O)c(=O)n(C)c1=O
> 59 µM (inactive)

State its GI50: Cc1cc2ccc(OC(=O)c3ccc(NC(=N)N)cc3)cc2oc1=O
41.6 µM (inactive)

Query GI50 for N#Cc1ccc(Nc2cnc3cc(N)ccc3n2)cc1
54.5 µM (inactive)

###

# System: HCT-15
# ASSAY TEXT: NCI tumour cell line growth inhibition, 48 h
TEST READOUT: GI50 (µM)
Report only the number, with the unit µM understood.

For the compound C[C@@H]1CCC2[C@@H](C)[C@@H](OCCO[C@H]3OC4O[C@@]5(C)CCC6[C@H](C)CCC([C@H]3C)[C@@]46OO5)OC3O[C@@]4(C)CCC1[C@]32OO4 (stereo partly drawn) , give its reported GI50.
0.0238
